Tested on: Tamiflu-resistant 2009 pandemic influenza A (H1N1) virus (H275Y mutation in neuraminidase)
conditions used: read-out: EC50 (μM), H1N1 Tamiflu-resistant
quantity: EC50 (µM)
The reply should contain only the number, in µM.

In: Tell me the measured EC50 of "O=c1cc(-c2ccccc2Br)oc2cc(O)c(O)c(O)c12" , please.
Out: 9

In: Quick one: "COc1cc2oc(-c3ccc(Br)cc3)cc(=O)c2c(OC)c1OC"
Out: 192

In: Quick one: O=c1cc(-c2ccccc2)oc2cc(O)c(O)c(O)c12 [Baicalein, reference compound]
Out: 46.2

In: Quick one: "COc1cc2oc(-c3cccc(Br)c3)cc(=O)c2c(O)c1OC"
Out: 4.2

In: Quick one: "COc1cc2oc(-c3ccc(Br)cc3)cc(=O)c2c(O)c1OC"
Out: 4.2

In: Quick one: "COc1c(O)cc2oc(-c3ccc(Br)cc3)cc(=O)c2c1O"
Out: 4.3

In: Quick one: NC(=O)c1ncn([C@@H]2O[C@H](CO)[C@@H](O)[C@H]2O)n1 [Ribavirin, reference compound]
Out: 25.6

In: Quick one: "COc1cc2oc(-c3cccc(Br)c3)cc(=O)c2c(OC)c1OC"
Out: 4

In: Quick one: "COc1c(O)cc2oc(-c3ccccc3Br)cc(=O)c2c1O"
Out: 8.6

In: Quick one: "COc1cc2oc(-c3ccccc3Br)cc(=O)c2c(OC)c1OC"
Out: 16

In: Quick one: "COc1cc2oc(-c3ccccc3Br)cc(=O)c2c(O)c1OC"
Out: 16.1

In: Quick one: O=C(O)[C@H]1O[C@@H](Oc2cc3oc(-c4ccccc4)cc(=O)c3c(O)c2O)[C@H](O)[C@@H](O)[C@@H]1O [Baicalin, reference compound]
Out: 69.3

In: Quick one: "O=c1cc(-c2ccc(Br)cc2)oc2cc(O)c(O)c(O)c12"
Out: 4.5

In: Quick one: "COc1c(O)cc2oc(-c3cccc(Br)c3)cc(=O)c2c1O"
Out: 4.3

In: Quick one: "O=c1cc(-c2cccc(Br)c2)oc2cc(O)c(O)c(O)c12"
Out: 4.5

* * *

Test system: Tamiflu-resistant 2009 pandemic influenza A (H1N1) virus (H275Y mutation in neuraminidase)
assay name: in vitro
conditions used: dog, SI (selective index = CC50/EC50), H1N1 Tamiflu-resistant virus
quantity: selectivity ratio

In: Tell me the measured selectivity ratio of O=c1cc(-c2ccccc2)oc2cc(O)c(O)c(O)c12 [Baicalein, reference compound] , please.
Out: > 3.3

In: Quick one: O=c1cc(-c2cccc(Br)c2)oc2cc(O)c(O)c(O)c12 [Compound 6b]
Out: > 66.7

In: Quick one: NC(=O)c1ncn([C@@H]2O[C@H](CO)[C@@H](O)[C@H]2O)n1 [Ribavirin, reference compound]
Out: > 11.7

In: Quick one: O=c1cc(-c2ccccc2Br)oc2cc(O)c(O)c(O)c12 [Compound 6a]
Out: > 33.3

In: Quick one: O=c1cc(-c2ccc(Br)cc2)oc2cc(O)c(O)c(O)c12 [Compound 6c]
Out: > 66.7

* * *

assay name: in vitro
conditions used: dog, CC50 (μM)
Answer each item with its documented CC50.

In: Tell me the measured CC50 of COc1cc2oc(-c3ccccc3Br)cc(=O)c2c(O)c1OC [Compound 4a] , please.
Out: 133 µM

In: Quick one: O=c1cc(-c2ccccc2Br)oc2cc(O)c(O)c(O)c12 [Compound 6a]
Out: > 300 µM

In: Quick one: O=C(O)[C@H]1O[C@@H](Oc2cc3oc(-c4ccccc4)cc(=O)c3c(O)c2O)[C@H](O)[C@@H](O)[C@@H]1O [Baicalin, reference compound]
Out: > 300 µM

In: Quick one: COc1c(O)cc2oc(-c3cccc(Br)c3)cc(=O)c2c1O [Compound 5b]
Out: > 300 µM

In: Quick one: COc1c(O)cc2oc(-c3ccccc3Br)cc(=O)c2c1O [Compound 5a]
Out: > 300 µM

In: Quick one: NC(=O)c1ncn([C@@H]2O[C@H](CO)[C@@H](O)[C@H]2O)n1 [Ribavirin, reference compound]
Out: > 300 µM

In: Quick one: COc1c(O)cc2oc(-c3ccc(Br)cc3)cc(=O)c2c1O [Compound 5c]
Out: > 300 µM

In: Quick one: COc1cc2oc(-c3cccc(Br)c3)cc(=O)c2c(OC)c1OC [Compound 2l]
Out: 32.1 µM

In: Quick one: O=c1cc(-c2cccc(Br)c2)oc2cc(O)c(O)c(O)c12 [Compound 6b]
Out: > 300 µM

In: Quick one: COc1cc2oc(-c3ccc(Br)cc3)cc(=O)c2c(OC)c1OC [Compound 2m]
Out: 128 µM

In: Quick one: COc1cc2oc(-c3ccc(Br)cc3)cc(=O)c2c(O)c1OC [Compound 4c]
Out: > 300 µM

In: Quick one: O=c1cc(-c2ccccc2)oc2cc(O)c(O)c(O)c12 [Baicalein, reference compound]
Out: > 300 µM

In: Quick one: O=c1cc(-c2ccc(Br)cc2)oc2cc(O)c(O)c(O)c12 [Compound 6c]
Out: > 300 µM

In: Quick one: COc1cc2oc(-c3ccccc3Br)cc(=O)c2c(OC)c1OC [Compound 2k]
Out: 128 µM

In: Quick one: COc1cc2oc(-c3cccc(Br)c3)cc(=O)c2c(O)c1OC [Compound 4b]
Out: 66.5 µM

Value source: patent US20150329515A1
